Test system: Quadruplex DNA
procedure-details: Stabilization of human Tel23 G4 quadruplex DNA assessed as change in melting temperature at 10 mol.equiv by circular dichroism melting assay
Format: nucleic-acid assay
Calls of active or inactive are those of the source. The rule behind the calls is not given here.
readout-label: Activity

[
  {
    "smiles-code": "N=C(N)N/N=C/c1cn(Cc2ccccc2)c2ccccc12",
    "target-under-test": "Quadruplex DNA",
    "readout-label": "Activity",
    "assay-result": "Active"
  },
  {
    "smiles-code": "O=C1Nc2ccc(Cl)cc2/C1=C\\c1cccc(/C=N/NC2=NCCN2)c1",
    "target-under-test": "Quadruplex DNA",
    "readout-label": "Activity",
    "assay-result": "Active"
  },
  {
    "smiles-code": "Cc1cc2c(cc1O)/C(=C\\c1cccc(/C=N/NC(=N)N)c1)C(=O)N2",
    "target-under-test": "Quadruplex DNA",
    "readout-label": "Activity",
    "assay-result": "Active"
  }
]

====

procedure-details: Effect on hairpin-duplex DNA architecture at 10 mol.equiv by circular dichroism spectral analysis
The source made the active and inactive calls. The rule behind the calls is not given here.

[
  {
    "smiles-code": "N=C(N)N/N=C/c1c(-c2ccccc2)nc2nc(N)ccn12",
    "Activity": "inactive"
  },
  {
    "smiles-code": "COc1cc2c(/C=N/NC(=N)N)c[nH]c2cc1C",
    "Activity": "inactive"
  },
  {
    "smiles-code": "Cc1cc2c(cc1O)/C(=C\\c1cccc(/C=N/NC(=N)N)c1)C(=O)N2",
    "Activity": "inactive"
  }
]

====

Test system: Quadruplex DNA
procedure-details: Stabilization of c-Kit1 G4 quadruplex DNA assessed as change in melting temperature at 10 mol.equiv by circular dichroism melting assay
Type: nucleic-acid assay
Active and inactive are the calls of the source. The rule behind the calls is not given here.
Could you please pick one outcome from this set? class 1 (active), class 0 (inactive)

[
  {
    "smiles-code": "N=C(N)N/N=C/c1cccc(/C=C2/C(=O)Nc3ccc(Cl)cc32)c1",
    "class-name": "class 1"
  },
  {
    "smiles-code": "O=C1Nc2c(ccc3ccccc23)/C1=C\\c1cccc(/C=N/NC2=NCCN2)c1",
    "class-name": "class 1"
  }
]

Just curious, what result did N=C(N)N/N=C/c1cn(C/C=C/c2ccccc2)c2ccccc12 get here?
class 1

In this assay, the call recorded for COc1cc2c(/C=N/NC(=N)N)c[nH]c2cc1C was what?
class 1

For COc1cc2c(/C=N/NC(=N)N)c(Cl)[nH]c2cc1C , which call appears in the assay record?
class 1

Called result for N=C(N)N/N=C/c1c(-c2ccccc2)nc2nc(N)ccn12
class 0

# fetch the recorded call for Cc1cc2c(cc1O)/C(=C\c1cccc(/C=N/NC3=NCCN3)c1)C(=O)N2 here
class 1

Give the logged outcome of this assay for the following compound: N=C(N)N/N=C/c1c(Cl)n(C/C=C/c2ccccc2)c2ccccc12
class 1

So what was the verdict on N=C(N)N/N=C/c1cccc(/C=C2/C(=O)Nc3c2ccc2ccccc32)c1 in this test?
class 1

Query: recorded result category for N=C(N)N/N=C/c1cn(Cc2ccccc2)c2ccccc12 in this test
class 1

====

Tested on: U2OS
procedure-details: Cytotoxicity against human U2OS cells assessed as reduction in cell viability incubated for 1 hr followed by 48 hrs of recovery in drug free medium by MTT assay
Type: functional, cell-based
readout-label: pIC50
// pIC50 here means minus log10 of the molar concentration (mol/L)

Fill in: pIC50 of CC(C)(C)c1cc(/C=N/NC(=N)N)c(O)c(/C=C2/C(=O)Nc3c2ccc2ccccc32)c1.Cl is ___
4.90

====

System: Quadruplex DNA
procedure-details: Stabilization of c-Kit2 G4 quadruplex DNA assessed as change in melting temperature at 10 mol.equiv by circular dichroism melting assay
Format: nucleic-acid assay
The source made the active and inactive calls. The calls are words filed in the database; no cut-off is given here.
// classify into T for active, F for inactive

Worked examples, 6 molecules total:
[
  {
    "smiles-code": "O=C1Nc2ccc(Cl)cc2/C1=C\\c1cccc(/C=N/NC2=NCCN2)c1",
    "class-name": "T"
  },
  {
    "smiles-code": "COc1cc2c(/C=N/NC(=N)N)c(Cl)n(C)c2cc1C",
    "class-name": "T"
  },
  {
    "smiles-code": "Nc1ccn2c(/C=N/NC3=NCCN3)c(-c3ccccc3)nc2n1",
    "class-name": "T"
  },
  {
    "smiles-code": "N=C(N)N/N=C/c1c(-c2ccccc2)nc2nc(N)ccn12",
    "class-name": "F"
  },
  {
    "smiles-code": "N=C(N)N/N=C/c1cccc(/C=C2/C(=O)Nc3c2ccc2ccccc32)c1",
    "class-name": "T"
  },
  {
    "smiles-code": "O=C1Nc2c(ccc3ccccc23)/C1=C\\c1cccc(/C=N/NC2=NCCN2)c1",
    "class-name": "T"
  }
]

Just curious, what result did N=C(N)N/N=C/c1cccc(/C=C2/C(=O)Nc3ccc(Cl)cc32)c1 get here?
T

Please share the test call associated with CC(C)(C)c1cc(/C=N/NC(=N)N)c(O)c(/C=C2/C(=O)Nc3c2ccc2ccccc32)c1.Cl .
T

I would be grateful if you could indicate the recorded call for N=C(N)N/N=C/c1cn(C/C=C/c2ccccc2)c2ccccc12 .
T

Just curious, what result did Cc1cc2c(cc1O)/C(=C\c1cccc(/C=N/NC(=N)N)c1)C(=O)N2 get here?
T

Test call for this molecule, please: COc1cc2c(/C=N/NC(=N)N)c(Cl)[nH]c2cc1C
T

====

System: Quadruplex DNA
procedure-details: Stabilization of human Tel23 G4 quadruplex DNA assessed as change in melting temperature at 10 mol.equiv by circular dichroism melting assay
Assay type: nucleic-acid assay
Calls of active or inactive are those of the source. No cut-off for these calls is given here.
Assign a class; possible classes are 1.0 = active, 0.0 = inactive

Known results for compounds:
[
  {
    "smiles-code": "O=C1Nc2c(ccc3ccccc23)/C1=C\\c1cccc(/C=N/NC2=NCCN2)c1",
    "target-under-test": "Quadruplex DNA",
    "class-name": 1.0
  },
  {
    "smiles-code": "N=C(N)N/N=C/c1c(Cl)n(C/C=C/c2ccccc2)c2ccccc12",
    "target-under-test": "Quadruplex DNA",
    "class-name": 1.0
  },
  {
    "smiles-code": "Nc1ccn2c(/C=N/NC3=NCCN3)c(-c3ccccc3)nc2n1",
    "target-under-test": "Quadruplex DNA",
    "class-name": 1.0
  },
  {
    "smiles-code": "N=C(N)N/N=C/c1cn(C/C=C/c2ccccc2)c2ccccc12",
    "target-under-test": "Quadruplex DNA",
    "class-name": 1.0
  },
  {
    "smiles-code": "COc1cc2c(/C=N/NC(=N)N)c[nH]c2cc1C",
    "target-under-test": "Quadruplex DNA",
    "class-name": 1.0
  },
  {
    "smiles-code": "N=C(N)N/N=C/c1c(-c2ccccc2)nc2nc(N)ccn12",
    "target-under-test": "Quadruplex DNA",
    "class-name": 0.0
  },
  {
    "smiles-code": "COc1cc2c(/C=N/NC(=N)N)c(Cl)[nH]c2cc1C",
    "target-under-test": "Quadruplex DNA",
    "class-name": 1.0
  },
  {
    "smiles-code": "COc1cc2c(/C=N/NC(=N)N)c(Cl)n(C)c2cc1C",
    "target-under-test": "Quadruplex DNA",
    "class-name": 1.0
  }
]

Recorded call for N=C(N)N/N=C/c1cccc(/C=C2/C(=O)Nc3c2ccc2ccccc32)c1 ?
1.0

Recorded test call requested for Cc1cc2c(cc1O)/C(=C\c1cccc(/C=N/NC3=NCCN3)c1)C(=O)N2
1.0

Outcome? N=C(N)N/N=C/c1cccc(/C=C2/C(=O)Nc3ccc(Cl)cc32)c1
1.0

====

System: Quadruplex DNA
procedure-details: Stabilization of c-Myc G4 quadruplex DNA assessed as change in melting temperature at 10 mol.equiv by circular dichroism melting assay
Format: nucleic-acid assay
Calls of active or inactive are those of the source. The rule behind the calls is not given here.
readout-label: Activity

Use the examples below as a reference point.
[
  {
    "smiles-code": "Cc1cc2c(cc1O)/C(=C\\c1cccc(/C=N/NC3=NCCN3)c1)C(=O)N2",
    "assay-result": "Active"
  },
  {
    "smiles-code": "N=C(N)N/N=C/c1c(Cl)n(C/C=C/c2ccccc2)c2ccccc12",
    "assay-result": "Active"
  },
  {
    "smiles-code": "COc1cc2c(/C=N/NC(=N)N)c[nH]c2cc1C",
    "assay-result": "Active"
  },
  {
    "smiles-code": "N=C(N)N/N=C/c1cccc(/C=C2/C(=O)Nc3c2ccc2ccccc32)c1",
    "assay-result": "Active"
  }
]

# input for lookup
Value lookup for Activity; key = COc1cc2c(/C=N/NC(=N)N)c(Cl)[nH]c2cc1C
Active

Source: ChEMBL document CHEMBL4402581
